Literature compilation of IC50 measurements on Amine oxidase [copper-containing] 3 (Homo sapiens, UniProt Q16853).
Sequence (Q16853 whole entry): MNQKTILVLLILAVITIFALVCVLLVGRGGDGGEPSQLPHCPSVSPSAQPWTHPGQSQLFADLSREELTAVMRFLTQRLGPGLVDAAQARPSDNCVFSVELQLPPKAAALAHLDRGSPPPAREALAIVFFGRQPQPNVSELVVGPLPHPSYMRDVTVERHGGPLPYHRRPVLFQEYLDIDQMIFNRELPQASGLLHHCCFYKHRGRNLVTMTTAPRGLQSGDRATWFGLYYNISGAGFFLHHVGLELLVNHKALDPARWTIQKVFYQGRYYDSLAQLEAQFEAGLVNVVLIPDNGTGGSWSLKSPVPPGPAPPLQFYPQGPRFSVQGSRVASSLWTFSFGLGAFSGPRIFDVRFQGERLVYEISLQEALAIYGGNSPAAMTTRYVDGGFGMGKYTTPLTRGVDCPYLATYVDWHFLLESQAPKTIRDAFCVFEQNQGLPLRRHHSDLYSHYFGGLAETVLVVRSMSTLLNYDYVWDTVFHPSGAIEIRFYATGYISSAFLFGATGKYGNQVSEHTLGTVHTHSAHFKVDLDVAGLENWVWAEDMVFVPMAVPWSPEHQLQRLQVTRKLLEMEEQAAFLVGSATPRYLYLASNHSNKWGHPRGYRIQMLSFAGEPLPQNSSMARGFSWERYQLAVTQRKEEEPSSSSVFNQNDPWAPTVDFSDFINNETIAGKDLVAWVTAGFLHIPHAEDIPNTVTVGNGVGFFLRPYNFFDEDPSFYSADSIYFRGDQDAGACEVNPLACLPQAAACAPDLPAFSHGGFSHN
experimental-endpoint: IC50 (nM)

{"structure-smiles": "C[C@@H]1CN(c2ccc(-c3cccc(CN(C)C(=O)CN)c3)cn2)C[C@H](C)O1", "target-of-assay": "Amine oxidase [copper-containing] 3 (Homo sapiens, UniProt Q16853)", "data-value": 81}
{"structure-smiles": "N=C(N)NC(=O)OCc1cccc(-c2cnc(N3CC[C@H](F)C3)nc2)c1", "target-of-assay": "Amine oxidase [copper-containing] 3 (Homo sapiens, UniProt Q16853)", "data-value": 33}
{"structure-smiles": "NNC(=O)Cc1ccc(CCc2cccc(N3CCNCC3)n2)cc1", "target-of-assay": "Amine oxidase [copper-containing] 3 (Homo sapiens, UniProt Q16853)", "data-value": 9.8}
{"structure-smiles": "CN(Cc1cccc(-c2cnc(N3CCCC3)nc2)c1)C(=O)CN", "target-of-assay": "Amine oxidase [copper-containing] 3 (Homo sapiens, UniProt Q16853)", "data-value": 49}
{"structure-smiles": "COCc1cc(N2CCN(c3cccc(COC(=O)NC(=N)N)c3F)CC2)ccn1", "target-of-assay": "Amine oxidase [copper-containing] 3 (Homo sapiens, UniProt Q16853)", "data-value": 6.3}
{"structure-smiles": "COCc1cncc(N2CCN(c3cccc(COC(=O)NC(=N)N)c3F)CC2)c1", "target-of-assay": "Amine oxidase [copper-containing] 3 (Homo sapiens, UniProt Q16853)", "data-value": 23}
{"structure-smiles": "Cc1ccc(N2CCN(c3cccc(COC(=O)NC(=N)N)c3F)CC2)cn1", "target-of-assay": "Amine oxidase [copper-containing] 3 (Homo sapiens, UniProt Q16853)", "data-value": 19}
{"structure-smiles": "N=C(N)NC(=O)OCc1cccc(N2CC(C3CCN(C(=O)C4CC4)CC3)C2)c1F", "target-of-assay": "Amine oxidase [copper-containing] 3 (Homo sapiens, UniProt Q16853)", "data-value": 9.6}
{"structure-smiles": "CCC(=O)N1CCC(C2CN(c3cccc(COC(=O)NC(=N)N)c3F)C2)CC1", "target-of-assay": "Amine oxidase [copper-containing] 3 (Homo sapiens, UniProt Q16853)", "data-value": 9}
{"structure-smiles": "COc1ncc(N2CCN(c3cccc(COC(=O)NC(=N)N)c3F)CC2)cn1", "target-of-assay": "Amine oxidase [copper-containing] 3 (Homo sapiens, UniProt Q16853)", "data-value": 15}
{"structure-smiles": "CCC(=O)N1CCC(OC2CN(c3cccc(COC(=O)NC(=N)N)c3F)C2)CC1", "target-of-assay": "Amine oxidase [copper-containing] 3 (Homo sapiens, UniProt Q16853)", "data-value": 14}
{"structure-smiles": "N=C(N)NC(=O)OCc1cccc(-c2cnc(OCC3CCN(C(=O)C4CC4)CC3)nc2)c1F", "target-of-assay": "Amine oxidase [copper-containing] 3 (Homo sapiens, UniProt Q16853)", "data-value": 5.3}
{"structure-smiles": "CC(=O)N1CCN(c2ccc(CCc3ccc(CCNC(=O)NN)s3)nc2)CC1", "target-of-assay": "Amine oxidase [copper-containing] 3 (Homo sapiens, UniProt Q16853)", "data-value": 18.7}
{"structure-smiles": "Cc1nc2c(s1)CN(c1ncc(-c3cccc(CN(C)C(=O)CN)c3)cn1)CC2", "target-of-assay": "Amine oxidase [copper-containing] 3 (Homo sapiens, UniProt Q16853)", "data-value": 20}
